assay: Half-life in phosphate buffer at pH 1.2; type: ADME
assay_readout: half-life (h)
# value in h; strip the unit string

What value of half-life has been reported for the following compound? Cc1oc(=O)oc1COC(=O)[C@H]1CC[C@H](CN)CC1.Cl
25

====

assay: Half-life in buffer at pH 7.5; type: ADME
Each record's half-life is compared with lower segment: < 30 h; middle segment: ≥ 30 h and < 90 h; upper segment: ≥ 90 h to give its class.

Answered examples (3):
Form field 'band' for CN(C)C(=O)C(OC(=O)[C@H]1CC[C@H](CN)CC1)OC(=O)[C@H]1CC[C@](C)(CN)CC1.Cl.Cl (stereo partly specified)
lower segment

Given C[C@]1(CN)CC[C@H](C(=O)OCOC(=O)[C@H]2CC[C@H](CN)CC2)CC1.Cl.Cl , name the class its half-life places it in.
lower segment

Entry CC(OC(=O)C(C)C)OC(=O)[C@H]1CC[C@H](CN)CC1.Cl (stereo partly specified) belongs to which category?
upper segment

Next:
Tag the class for CC(C)OC(=O)OC(C)OC(=O)[C@H]1CC[C@H](CN)CC1.Cl (stereo partly specified)
upper segment

====

Catalogue of Absorption values
test system: Rattus norvegicus; assay: Compound was evaluated for percent tranexamic acid recovered in rat urine within 24 hr after oral administration of 0.1 mmol/kg of body weight per mole of pro drug; format: ADME, organism-based; conditions: in vivo
Number in %, nothing else.

Consider the worked cases shown below.
Query: Absorption; subject: CN(C)C(=O)C(OC(=O)[C@H]1CC[C@H](CN)CC1)OC(=O)[C@H]1CC[C@](C)(CN)CC1.Cl.Cl (some centres undefined)
54

# lookup: Absorption of CC(C)OC(=O)OC(C)OC(=O)[C@H]1CC[C@H](CN)CC1.Cl (some centres undefined)
43

Data request, read-out Absorption, for CCN(CC)C(=O)C(OC(=O)[C@H]1CC[C@H](CN)CC1)OC(=O)[C@H]1CC[C@](C)(CN)CC1.Cl.Cl (some centres undefined)
34

Fill blank: measured Absorption of the compound CCOC(=O)C(OC(=O)[C@H]1CC[C@H](CN)CC1)OC(=O)[C@H]1CC[C@](C)(CN)CC1.Cl.Cl (some centres undefined) is ____.
62

Report Absorption for Cl.NC[C@H]1CC[C@H](C(=O)OC2OC(=O)c3ccccc32)CC1 (some centres undefined) please.
44

Here is another compound to look at.
Can you look up the measured Absorption of Cc1oc(=O)oc1COC(=O)[C@H]1CC[C@H](CN)CC1.Cl for me?
67

====

test: Half-life in phosphate buffer at pH 7.5; type: ADME
# half-life values compiled below
// return numeric value only (unit: h, not printed)

Fill in the blank: the reported half-life of Cl.NC[C@H]1CC[C@H](C(=O)OC2OC(=O)c3ccccc32)CC1 (some centres not stated) is ____.
5

Looking for the measured half-life of Cc1oc(=O)oc1COC(=O)[C@H]1CC[C@H](CN)CC1.Cl , can you help?
2

====

experiment: Half-life in buffer at pH 1.2; type: ADME
Please use class 1 whenever half-life is not below 30 h, and class 0 whenever it is.

Worked examples follow.
Given the entry CCOC(=O)C(OC(=O)[C@H]1CC[C@H](CN)CC1)OC(=O)[C@H]1CC[C@](C)(CN)CC1.Cl.Cl (stereo partly specified) , answer whether its half-life meets or surpasses 30 h.
class 0

Would you say C[C@]1(CN)CC[C@H](C(=O)OCOC(=O)[C@H]2CC[C@H](CN)CC2)CC1.Cl.Cl shows half-life at minimum 30 h?
class 1

Let us examine a further case.
Identify whether the reported half-life of the following compound is 30 h or greater: CC(C)(C)C(=O)OCOC(=O)[C@H]1CC[C@H](CN)CC1.Cl
class 1
